# Test system: Vero
# TEST METHOD NOTES: Cytotoxicity against african green monkey Vero cells
# Format: cell-based
# ASSAY CONDITIONS: Chlorocebus sabaeus

>  <COMPOUND>
COc1ccc(C2NC(=S)Nc3c2c(=O)oc2ccccc32)cc1 (stereo not given)

>  <INEQUALITY OPERATOR>
>

>  <IC50 [µM]>
128

$$$$
>  <COMPOUND>
O=C1Nc2c(c(=O)oc3ccccc23)C(c2cccc(Br)c2)N1 (stereo not given)

>  <INEQUALITY OPERATOR>
=

>  <IC50 [µM]>
106

$$$$
>  <COMPOUND>
COc1ccc(C2NC(=O)Nc3c2c(=O)oc2ccc(C)cc32)cc1OC (stereo not given)

>  <INEQUALITY OPERATOR>
>

>  <IC50 [µM]>
128

$$$$
>  <COMPOUND>
Cc1ccc2oc(=O)c3c(c2c1)NC(=S)NC3c1cccc(Br)c1 (stereo not given)

>  <INEQUALITY OPERATOR>
=

>  <IC50 [µM]>
47.6

$$$$
>  <COMPOUND>
COc1cc(C2NC(=S)Nc3c2c(=O)oc2ccccc32)ccc1O (stereo not given)

>  <INEQUALITY OPERATOR>
>

>  <IC50 [µM]>
128

$$$$
>  <COMPOUND>
COc1ccc(C2NC(=O)Nc3c2c(=O)oc2ccccc32)cc1 (stereo not given)

>  <INEQUALITY OPERATOR>
=

>  <IC50 [µM]>
119

$$$$
>  <COMPOUND>
COc1ccc(C2NC(=O)Nc3c2c(=O)oc2ccc(C)cc32)cc1 (stereo not given)

>  <INEQUALITY OPERATOR>
=

>  <IC50 [µM]>
101

$$$$
>  <COMPOUND>
COc1ccc(C2NC(=S)Nc3c2c(=O)oc2ccc(C)cc32)cc1OC (stereo not given)

>  <INEQUALITY OPERATOR>
>

>  <IC50 [µM]>
128

$$$$
>  <COMPOUND>
COc1ccc(C2NC(=S)Nc3c2c(=O)oc2ccccc32)cc1OC (stereo not given)

>  <INEQUALITY OPERATOR>
>

>  <IC50 [µM]>
128

$$$$
>  <COMPOUND>
O=c1oc2ccccc2c2c1C(c1cccc(Br)c1)NC(=S)N2 (stereo not given)

>  <INEQUALITY OPERATOR>
=

>  <IC50 [µM]>
47.4

$$$$

====

# System: Vero
# TEST METHOD NOTES: Cytotoxicity against african green monkey Vero cells
# Type: cell-based
# ASSAY CONDITIONS: Chlorocebus sabaeus
pIC50: −log10 of the molar value.
# maps each entry to its pIC50

>  <MOLECULE>
COc1cc(C2NC(=O)Nc3c2c(=O)oc2ccccc32)ccc1O (stereo unspecified)

>  <TARGET ENTITY>
Vero

>  <pIC50>
< 3.89

$$$$
>  <MOLECULE>
O=C1Nc2c(c(=O)oc3ccccc23)C(c2ccccc2O)N1 (stereo unspecified)

>  <TARGET ENTITY>
Vero

>  <pIC50>
3.91

$$$$
>  <MOLECULE>
O=c1oc2ccccc2c2c1C(c1ccccc1)NC(=S)N2 (stereo unspecified)

>  <TARGET ENTITY>
Vero

>  <pIC50>
< 3.89

$$$$
>  <MOLECULE>
O=C1Nc2c(c(=O)oc3ccccc23)C(c2ccccc2)N1 (stereo unspecified)

>  <TARGET ENTITY>
Vero

>  <pIC50>
4.07

$$$$
>  <MOLECULE>
COc1ccc(C2NC(=S)Nc3c2c(=O)oc2ccc(C)cc32)cc1 (stereo unspecified)

>  <TARGET ENTITY>
Vero

>  <pIC50>
< 3.89

$$$$
>  <MOLECULE>
COc1ccc(C2NC(=O)Nc3c2c(=O)oc2ccccc32)cc1OC (stereo unspecified)

>  <TARGET ENTITY>
Vero

>  <pIC50>
< 3.89

$$$$
